assayText: Aqueous solubility of compound at pH 4.5
Format: physicochemical
testContext: buffer

molSmiles | solubility [µg/mL]
CO[C@@H](CNC(=O)[C@H](NC(=O)[C@H](O)[C@H](C)O)[C@H](O)c1cncn1C)[C@H](O)[C@H](O)C(=O)N(C)[C@@H](Cc1ccccc1)C(=O)NCC(=O)N[C@H](C(=O)N[C@@H](CO)C(=O)N[C@H](C(=O)N[C@H](C(=O)N[C@@H](CC(=O)O)C(=O)N1CCC[C@H]1C(=O)NCc1cc(=O)c(O)cn1O)C(C)(C)C)C(C)(C)O)C(C)(C)O | 8100
